Tested on: HCT116 colon cancer cells
Test: hexoseaminidase cell proliferation assay, HCT116
Assay type: cell-based
Settings: HCT116, 48 h
Recorded pIC50 by entry
Remember, pIC50 is on a log scale: it is -log10 of the molar concentration.

[
  {
    "SMILES_REPRESENTATION": "O=C(N/N=C/c1ccc(F)c(F)c1)c1cc2ccccc2cc1O",
    "EXPERIMENTAL_TARGET": "HCT116 colon cancer cells",
    "pIC50": 4.60
  }
]

Provide one value: measured pIC50 of O=C(N/N=C/c1ccc2ccccc2c1O)c1cc2ccccc2cc1O 5.22

----------
Tested on: PanC-1 pancreatic cancer cells
Assay: hexoseaminidase cell proliferation assay, PanC-1
Assay type: cell-based
Settings: PanC-1, 24 h
pIC50: −log10 of the molar value.
MEASUREMENT_KIND: pIC50

Here is how some compounds turned out for pIC50.
[
  {
    "COMPOUND": "O=C(N/N=C/c1ccc2ccccc2c1O)c1cc2ccccc2cc1O [NAL]",
    "pIC50": 4.35
  },
  {
    "COMPOUND": "NNC(=O)c1cc2ccccc2cc1O [MRL BDM]",
    "pIC50": "< 4.30"
  },
  {
    "COMPOUND": "O=C(N/N=C/c1ccc(O)c(O)c1O)c1cc2ccccc2cc1O [MRL THB]",
    "pIC50": "< 4.30"
  },
  {
    "COMPOUND": "O=C(N/N=C/c1coc2ccccc2c1=O)c1cc2ccccc2cc1O [CMR]",
    "pIC50": "< 4.30"
  },
  {
    "COMPOUND": "C/C(=N\\NC(=O)c1ccco1)c1ccc2ccccc2c1O [MRL21]",
    "pIC50": "< 5.00"
  },
  {
    "COMPOUND": "O=C(N/N=C/c1ccc(F)c(F)c1F)c1cc2ccccc2cc1O [MRL TFB]",
    "pIC50": "< 4.30"
  }
]

Provide one value: measured pIC50 of C/C(=N\NC(=O)c1cc2ccccc2cc1O)c1ccc2ccccc2c1O [MRL20] < 5.00

Provide one value: measured pIC50 of O=C(N/N=C/c1ccccc1O)c1cc2ccccc2cc1O [SAL] < 4.30

Provide one value: measured pIC50 of O=C(N/N=C/c1ccc(O)cc1)c1cc2ccccc2cc1O [MRL MHB] < 4.30

Provide one value: measured pIC50 of O=C(N/N=C/c1ccc(O)c(O)c1)c1cc2ccccc2cc1O [MRL DHB] < 4.30

Provide one value: measured pIC50 of O=C(N/N=C/c1ccc(F)c(F)c1)c1cc2ccccc2cc1O [MRL DFB] < 4.30

Provide one value: measured pIC50 of O=C(N/N=C/c1ccc(F)cc1)c1cc2ccccc2cc1O [MRL MFB] < 4.30

Provide one value: measured pIC50 of O=C(N/N=C/c1cc(F)cc(F)c1)c1cc2ccccc2cc1O [MRL RFB] < 4.30
